Target: human DNA polymerase γ (Homo sapiens)
Sequence (P54098 whole entry): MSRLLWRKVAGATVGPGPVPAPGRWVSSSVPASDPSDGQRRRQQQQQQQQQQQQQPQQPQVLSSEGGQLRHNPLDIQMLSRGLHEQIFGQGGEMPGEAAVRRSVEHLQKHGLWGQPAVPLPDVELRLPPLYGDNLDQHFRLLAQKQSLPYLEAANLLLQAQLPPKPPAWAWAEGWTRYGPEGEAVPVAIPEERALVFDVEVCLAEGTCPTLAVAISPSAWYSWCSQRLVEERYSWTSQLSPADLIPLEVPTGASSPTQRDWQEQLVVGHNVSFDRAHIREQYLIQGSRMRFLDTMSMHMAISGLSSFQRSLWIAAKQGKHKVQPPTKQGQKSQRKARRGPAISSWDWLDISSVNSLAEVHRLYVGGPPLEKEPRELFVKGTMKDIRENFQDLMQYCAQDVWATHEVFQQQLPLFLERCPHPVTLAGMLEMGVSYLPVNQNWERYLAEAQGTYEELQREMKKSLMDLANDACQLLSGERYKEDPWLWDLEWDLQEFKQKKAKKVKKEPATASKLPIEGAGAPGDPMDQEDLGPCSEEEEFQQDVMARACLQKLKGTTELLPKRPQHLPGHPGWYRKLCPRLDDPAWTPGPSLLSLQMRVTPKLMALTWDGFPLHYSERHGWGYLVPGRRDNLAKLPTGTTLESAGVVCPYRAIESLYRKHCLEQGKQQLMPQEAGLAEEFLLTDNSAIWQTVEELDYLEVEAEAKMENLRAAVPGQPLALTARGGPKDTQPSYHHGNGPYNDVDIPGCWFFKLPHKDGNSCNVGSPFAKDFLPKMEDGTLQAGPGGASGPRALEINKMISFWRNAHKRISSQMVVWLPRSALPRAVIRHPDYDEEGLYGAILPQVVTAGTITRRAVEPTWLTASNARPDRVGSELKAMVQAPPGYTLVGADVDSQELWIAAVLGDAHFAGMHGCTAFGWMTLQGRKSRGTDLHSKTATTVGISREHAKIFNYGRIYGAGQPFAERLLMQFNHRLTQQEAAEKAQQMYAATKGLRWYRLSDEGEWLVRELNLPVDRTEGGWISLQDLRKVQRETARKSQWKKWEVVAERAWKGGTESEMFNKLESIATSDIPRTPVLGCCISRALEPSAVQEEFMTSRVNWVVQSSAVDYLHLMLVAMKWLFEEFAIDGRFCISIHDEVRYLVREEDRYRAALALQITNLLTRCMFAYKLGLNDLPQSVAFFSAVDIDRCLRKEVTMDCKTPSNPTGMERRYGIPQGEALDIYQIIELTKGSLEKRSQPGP
Assay: Inhibition of human DNA polymerase γ (Dixon plot, calf thymus activated DNA, dATP)
Assay type: biochemical
Settings: calf thymus activated DNA as template-primer, dATP as substrate; read-out: DNA pol γ Ki
pKi: −log10 of the molar value.
MEASURED_ENDPOINT: pKi

Examples with answers:
[[record]]
query_smiles = "Nc1ccn([C@@H]2C[C@@H](O)[C@H](COP(=O)(O)OP(=O)(O)OP(=O)(O)O)O2)c(=O)n1"
measured_endpoint = "pKi"
result = "< 4.00"

[[record]]
query_smiles = "Cc1cn([C@@H]2C[C@@H](O)[C@H](COP(=O)(O)OP(=O)(O)OP(=O)(O)O)O2)c(=O)[nH]c1=O"
measured_endpoint = "pKi"
result = "< 4.00"


We next turn to a different compound, shown below.
get_value(item= O=c1ccn([C@@H]2C[C@@H](O)[C@H](COP(=O)(O)OP(=O)(O)OP(=O)(O)O)O2)c(=O)[nH]1 , readout=pKi) returns < 4.00
